Recorded HEK293T cells survival rate for the following compounds
- Tested on: HEK293T cells
- test.protocol: in vitro
- Assay type: cell-based
- test.settings: human, 72 h, 12.5 µmol·L−1

substance.smiles | target.or.system | unit.tag | HEK293T cells survival rate
O=C(NCc1ccccc1)c1ccc(Nc2ccnc3cc(C(F)(F)F)ccc23)cc1 | HEK293T cells | % | 105.25
O=C(NCCCN1CCOCC1)c1ccc(Nc2ccnc3cc(C(F)(F)F)ccc23)cc1 | HEK293T cells | % | 95.72
COc1ccccc1OCCNC(=O)c1ccc(Nc2ccnc3cc(OC(F)(F)F)ccc23)cc1 | HEK293T cells | % | 91.65
CC(C)NC(=O)c1ccc(Nc2ccnc3cc(C(F)(F)F)ccc23)cc1 | HEK293T cells | % | 85.31
Cc1ccccc1N1CCN(C(=O)c2ccc(Nc3ccnc4cc(C(F)(F)F)ccc34)cc2)CC1 | HEK293T cells | % | 89.92
COc1ccccc1OCCNC(=O)c1ccc(Nc2ccnc3cc(C)ccc23)cc1 | HEK293T cells | % | 105.56
COc1ccccc1OCCNC(=O)c1ccc(Nc2ccnc3ccc(C(F)(F)F)cc23)cc1 | HEK293T cells | % | 78.70
